B1: MNAT1 (parent)
chain: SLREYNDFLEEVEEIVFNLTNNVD

variants of: B1; assay: protein stability index of a GFP-peptide fusion (GPS, HEK-293T) (PSI 1-6); higher = more stable; details: c terminus: a fixed tail appended;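 further: lentivirally expressed fusions sorted by FACS into six bins by GFP to DsRed ratio, PSI derived from sequencing read proportions per bin multiplied by bin number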
Criterion: protein stability index meeting or surpassing 3. Met: 1. Not met: 0.

Observe how each entry below is paired with its result.
Form field: protein stability index at least 3? Entry: V12G
1

Confirm if protein stability index reported for the variant D24C is 3 or above.
0

Determine whether measured protein stability index meets or exceeds 3 for F8M
1

Threshold query (protein stability index >= 3) on V23I
0

***
Decide: protein stability index of L9D >= 3?
1

Check the entry S1Y : does protein stability index equal or exceed 3?
0

Dear colleague, could you confirm whether N18S has protein stability index at or above 3?
0

Decide: is the reported value of protein stability index for I15Y equal to or greater than 3?
1
